Tested on: YAP/TAZ
method.notes: YAP/TAZ nuclear localization (immunofluorescence, automated imaging) in IPF patient-derived lung fibroblasts
Assay type: cell-based, human
test.context: patient sample IPF-1; 10 μM, treated 2 hours prior to fixation
Structures can show the parent of a compound that is named as a salt.
property.measured: Nuclear localization (% of total cells) IPF-1

Example cases with answers are listed next.
NCCc1cccc(O)c1 [3-Hydroxyphenethylamine•HCl, 3-Hydroxyphenethylamine]	48.96 % of total cells
CCCN(CCc1ccccc1)C1CCc2c(O)cccc2C1.Cl (racemic)	68.85 % of total cells

For every item in the list below, what is its measured Nuclear localization (% of total cells) IPF-1?
1. NC[C@@H]1O[C@H](C23CC4CC(CC(C4)C2)C3)Cc2c1ccc(O)c2O [A-77636•HCl•H2O]
2. CN1Cc2ccccc2C2c3cccc4[nH]cc(c34)CC21 (centres unmarked)
3. CCCN1CCO[C@@H]2c3cc(O)ccc3OC[C@H]21.Cl (racemic) [(±)-PD 128,907•HCl]

26.46 % of total cells
20.52 % of total cells
60.13 % of total cells

----------
Tested on: YAP/TAZ
method.notes: YAP/TAZ nuclear localization (immunofluorescence, automated imaging) in IPF patient-derived lung fibroblasts
Format: cell-based, human
test.context: patient sample IPF-4; 10 μM, treated 2 hours prior to fixation
Where a name gives a salt, the structure may show the parent alone.
property.measured: Nuclear localization (% of total cells) IPF-4

Example cases with answers are listed next.
Br.C=CCN1CCc2c(cc(O)c(O)c2Br)[C@@H](c2ccccc2)C1 [R(+)-6-BROMO-APB•HBr, R(+)-6-bromo-APB]	25.65 % of total cells
CNCCc1ccc(O)c(O)c1 [N-Methyldopamine•HCl, N-Methyldopamine]	70.44 % of total cells
CCCN(CCC)[C@@H]1CCc2c(OC)cccc2[C@@H]1C.O=C(O)/C=C\C(=O)O [(+)-UH 232 maleate]	67.27 % of total cells

Now, please, on to the next molecule.
Recorded result, C=CCN1CCc2c(cc(O)c(O)c2Cl)C(c2ccccc2)C1 (racemic) [(±)-SKF-82958•HBr] , Nuclear localization (% of total cells) IPF-4: 12.29 % of total cells

----------
Test system: YAP/TAZ
method.notes: YAP/TAZ nuclear localization (immunofluorescence, automated imaging) in IPF patient-derived lung fibroblasts
Format: cell-based, human
test.context: patient sample IPF-4; 10 μM, treated 2 hours prior to fixation
Procedure: 27A. […] IPF patient-derived lung fibroblasts cells treated 2 hours prior to fixation with diverse dopaminergic agonists (10 μM). N=4 different patient samples. % nuclear localization of YAP/TAZ was determined using automated imaging software. Scale bar represents 100 μm. 27C. cAMP measured in IPF patient-derived fibroblasts treated for 20 minutes with DHX. N=3. 27E. […]
property.measured: Nuclear localization (% of total cells) IPF-4

Cc1cccc(C(=O)NCN2CCN(c3ccccc3C#N)CC2)c1.O=C(O)/C=C\C(=O)O [PD 168077 maleate]	68.4 % of total cells
COc1ccc2c(c1O)-c1cc(O)cc3c1[C@@H](C2)N(C)CC3.Cl	80.45 % of total cells

Now, please, on to the next compound.
Recorded result, CCCN1CCO[C@@H]2c3cc(O)ccc3OC[C@H]21.Cl (racemic) [(±)-PD 128,907•HCl] , Nuclear localization (% of total cells) IPF-4: 60.66 % of total cells

----------
Please go through the items and note down their activity at 1 µM.
System: αSMA
method.notes: αSMA intensity (fibroblast activation) in IPF patient-derived lung fibroblasts + TGFβ
Format: cell-based, human
test.context: Homo sapiens, SMA; patient sample IPF-1; 1 μM + TGFβ, treated for 72 hours; read-out: αSMA intensity (% of DMSO control) IPF-1
Where a name gives a salt, the structure may show the parent alone.
One number for each entry, in %.

C=CCN1C[C@H](C(=O)N(CCCN(C)C)C(=O)NCC)C[C@@H]2c3cccc4[nH]cc(c34)C[C@H]21	76.9

For every item in the list below, what is its measured activity at 1 µM?
1. NCCc1ccc(O)cc1 [4-Hydroxyphenethylamine•HCl, 4-Hydroxyphenethylamine]
2. CNCCc1ccc(O)c(O)c1 [N-Methyldopamine•HCl, N-Methyldopamine]

1: 99.7; 2: 43.2

For every item in the list below, what is its measured activity at 1 µM?
1. NCC1OC(c2ccccc2)Cc2c1ccc(O)c2O (stereo not drawn) [A 68930•HCl]
2. C=CCN1CCc2c(cc(O)c(O)c2Cl)C(c2ccccc2)C1 (racemic) [(±)-SKF-82958•HBr]
3. CCCN[C@H]1CCc2nc(N)sc2C1 [Pramipexole Dihydrochloride Monohydrate, Pramipexole]

[12.4, 11.8, 87.6]

----------
System: αSMA
method.notes: αSMA intensity (fibroblast activation) in IPF patient-derived lung fibroblasts + TGFβ
Format: cell-based, human
test.context: Homo sapiens, SMA; patient sample IPF-4; 1 μM + TGFβ, treated for 72 hours; read-out: αSMA intensity (% of DMSO control) IPF-4
Where a name gives a salt, the structure may show the parent alone.
Please go through the items and note down their activity at 1 µM.
Answers are plain numbers, in %.

Example cases with answers are listed next.
CN1C[C@@H](NS(=O)(=O)N(C)C)C[C@@H]2c3cccc4c3c(cn4C)C[C@H]21 [Mesulergine•HCl, Mesulergine]	19.8
CNCCc1ccc(O)c(O)c1 [N-Methyldopamine•HCl, N-Methyldopamine]	14.7
NC[C@@H]1O[C@H](C23CC4CC(CC(C4)C2)C3)Cc2c1ccc(O)c2O [A-77636•HCl•H2O]	12.4
CCCN(CCC)CCc1cccc2c1CC(=O)N2 [Ropinirole HCl, Ropinirole]	62
NCCc1cccc(O)c1 [3-Hydroxyphenethylamine•HCl, 3-Hydroxyphenethylamine]	99.8
C=CCN1CCc2c(cc(O)c(O)c2Cl)C(c2ccccc2)C1 (racemic) [(±)-SKF-82958•HBr]	9.33

For every item in the list below, what is its measured activity at 1 µM?
1. CCCN[C@H]1CCc2nc(N)sc2C1 [Pramipexole Dihydrochloride Monohydrate, Pramipexole]
2. c1cnc(N2CCN(Cc3ccc4c(c3)OCO4)CC2)nc1 [Piribedil•2HCl, Piribedil]
3. Oc1ccc(C2CNCCc3c2cc(O)c(O)c3Cl)cc1 (centres unmarked) [Fenoldopam•HCl, Fenoldopam]
4. CC(C)C[C@H]1C(=O)N2CCC[C@H]2[C@]2(O)O[C@](NC(=O)[C@@H]3C=C4c5cccc6[nH]c(Br)c(c56)C[C@H]4N(C)C3)(C(C)C)C(=O)N12 [Bromocriptine mesylate, Bromocriptine]
5. NCC1OC(c2ccccc2)Cc2c1ccc(O)c2O (centres unmarked) [A 68930•HCl]

1. 89.9
2. 41.2
3. 63.4
4. 34.1
5. 7.35
